Test system: STAT5b-GyrB fusion proteins
Settings: Table 7, Example 5; 90 nM
Listed next: entries and their corresponding Prolif. (cpm).
Report as a plain number; the unit cpm is understood.

Known Prolif. (cpm) results, listed for orientation:
COC1C(OC(N)=O)C(O)C(Oc2ccc3c(O)c(NC(=O)c4cc(=O)cc(C(=O)Nc5c(O)c6ccc(OC7OC(C)(C)C(OC)C(OC(N)=O)C7O)c(C)c6oc5=O)o4)c(=O)oc3c2C)OC1(C)C (centres unmarked) [CCmpd 3, reference compound]; 33671
COC1C(OC(=O)c2ccc(C)[nH]2)C(O)C(Oc2ccc3c(O)c(NC(=O)c4cc(=O)cc(C(=O)Nc5c(O)c6ccc(OC7OC(C)(C)C(OC)C(OC(=O)c8ccc(C)[nH]8)C7O)c(C)c6oc5=O)o4)c(=O)oc3c2C)OC1(C)C (centres unmarked); 33933

Using known records, supply Prolif. (cpm) for COC1C(OC(=O)c2ccc(C)[nH]2)C(O)C(Oc2ccc3c(O)c(NC(=O)c4ccc(Oc5ccc(C(=O)Nc6c(O)c7ccc(OC8OC(C)(C)C(OC)C(OC(=O)c9ccc(C)[nH]9)C8O)c(C)c7oc6=O)cc5)cc4)c(=O)oc3c2C)OC1(C)C (centres unmarked)
42674

Read off the recorded Prolif. (cpm) for COC1C(OC(N)=O)C(O)C(Oc2ccc3c(O)c(NC(=O)c4ccc(Oc5ccc(C(=O)Nc6c(O)c7ccc(OC8OC(C)(C)C(OC)C(OC(N)=O)C8O)c(C)c7oc6=O)cc5)cc4)c(=O)oc3c2C)OC1(C)C (centres unmarked) [CCmpd 4, reference compound]
36764

Give recorded Prolif. (cpm). COC1C(OC(=O)c2ccc(C)[nH]2)C(O)C(Oc2ccc3c(O)c(NC(=O)c4c[nH]c(C(=O)Nc5c(O)c6ccc(OC7OC(C)(C)C(OC)C(OC(=O)c8ccc(C)[nH]8)C7O)c(C)c6oc5=O)c4C)c(=O)oc3c2C)OC1(C)C (centres unmarked)
51248
